# assay target: MLK3 (Homo sapiens, UniProt Q16584)
# Sequence (Q16584 whole entry): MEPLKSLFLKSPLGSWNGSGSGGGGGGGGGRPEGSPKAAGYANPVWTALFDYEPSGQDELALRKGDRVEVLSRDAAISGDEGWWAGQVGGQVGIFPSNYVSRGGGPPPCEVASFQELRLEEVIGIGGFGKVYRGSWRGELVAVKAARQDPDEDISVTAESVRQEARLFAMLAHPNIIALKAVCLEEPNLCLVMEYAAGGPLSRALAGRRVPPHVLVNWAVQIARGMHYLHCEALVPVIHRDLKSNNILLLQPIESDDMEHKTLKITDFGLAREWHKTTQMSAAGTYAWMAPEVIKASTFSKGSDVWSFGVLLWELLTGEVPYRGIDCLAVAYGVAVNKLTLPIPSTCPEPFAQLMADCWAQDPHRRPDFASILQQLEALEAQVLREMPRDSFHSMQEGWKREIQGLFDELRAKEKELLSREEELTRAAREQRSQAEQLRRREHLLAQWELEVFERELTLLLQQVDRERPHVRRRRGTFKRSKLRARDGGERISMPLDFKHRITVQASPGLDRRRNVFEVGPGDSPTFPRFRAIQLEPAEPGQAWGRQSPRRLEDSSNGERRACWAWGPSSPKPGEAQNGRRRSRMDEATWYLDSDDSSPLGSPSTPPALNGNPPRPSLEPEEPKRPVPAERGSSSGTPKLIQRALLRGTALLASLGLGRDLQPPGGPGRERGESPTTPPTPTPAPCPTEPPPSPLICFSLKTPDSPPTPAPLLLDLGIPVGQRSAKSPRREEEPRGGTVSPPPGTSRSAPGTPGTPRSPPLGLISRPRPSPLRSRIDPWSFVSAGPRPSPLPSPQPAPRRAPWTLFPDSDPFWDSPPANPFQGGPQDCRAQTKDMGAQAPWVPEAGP
# experiment: Kinase profiling (radiometric filter-binding)
# Format: biochemical
# conditions used: MLK3, 1 µM inhibitor; read-out: Residual activity, %
Square brackets hold non-standard residues; d marks the D form. Peptide text beside a SMILES is read from it. * marks the point of attachment. X3 = O=C(CCCCCNCc1nc2c(sc3cc(Br)cnc32)c(=O)[nH]1)*
Collected remaining activity at 1 µM values appear next to each entry.
Numbers only; they are read as %.

Example cases with answers are listed next.
1. N=C(N)NCCC[C@@H](NC(=O)CNC(=O)[C@@H](CCCNC(=N)N)NC(=O)[C@@H](CCCNC(=N)N)NC(=O)CCCCCCCNCc1nc2c(sc3ccc(Br)cc32)c(=O)[nH]1)C(=O)N[C@H](CCCCN)C(N)=O ... 107
2. N=C(N)NCCC[C@@H](NC(=O)CCCCCNCc1nc2c(sc3cc(Br)cnc32)c(=O)[nH]1)C(=O)N[C@H](CCCNC(=N)N)C(=O)N[C@H](CCCNC(=N)N)C(=O)N[C@H](CCCNC(=N)N)C(=O)N[C@H](CCCNC(=N)N)C(=O)N[C@H](CCCNC(=N)N)C(=O)N[C@H](CCCCN)C(N)=O [ARC-3126, BPTP-Ahx-(D-Arg)6-D-Lys-NH2] (X3-[dR][dR][dR][dR][dR][dR][dK]-NH2) ... 117
3. N=C(N)NCCC[C@@H](NC(=O)CNC(=O)[C@@H](CCCNC(=N)N)NC(=O)[C@@H](CCCNC(=N)N)NC(=O)CCCCCCCNCc1nc2c(sc3cc(Br)cnc32)c(=O)[nH]1)C(=O)N[C@H](CCCCN)C(N)=O ... 105

Lookup: Identify remaining activity at 1 µM associated with the molecule N=C(N)NCCC[C@@H](NC(=O)CCCCCNC(=O)Cn1cnc2c(I)c(I)c(I)c(I)c21)C(=O)N[C@H](CCCNC(=N)N)C(=O)N[C@H](CCCNC(=N)N)C(=O)N[C@H](CCCNC(=N)N)C(=O)N[C@H](CCCNC(=N)N)C(=O)N[C@H](CCCNC(=N)N)C(=O)N[C@H](CCCCN)C(N)=O
Found: 98

Lookup: Please report the measured remaining activity at 1 µM for N=C(N)NCCC[C@@H](NC(=O)CNC(=O)[C@@H](CCCNC(=N)N)NC(=O)[C@@H](CCCNC(=N)N)NC(=O)Cn1cc(CNCc2nc3c(sc4ccc(Br)cc43)c(=O)[nH]2)nn1)C(=O)N[C@H](CCCCN)C(N)=O
Found: 94
